List of EC50 values.
tested on: Nuclear factor erythroid 2-related factor 2 (Homo sapiens, UniProt Q16236)
assay protocol: Activation of Nrf2 (unknown origin) expressed in human U2OS cells co-expressing Keap1 assessed as increase in Nrf2 nuclear translocation incubated for 6 hrs under dark condition by pathhunter assay

smiles data	tested on	u	EC50
O=S(=O)(/C=C/c1ccc(Cl)cn1)c1cccc(F)c1	Nuclear factor erythroid 2-related factor 2 (Homo sapiens, UniProt Q16236)	nM	2500
O=S(=O)(/C=C\c1ncccc1F)c1ccccc1Cl	Nuclear factor erythroid 2-related factor 2 (Homo sapiens, UniProt Q16236)	nM	583
O=S(=O)(/C=C\c1ncccc1Cl)c1ccccc1Cl	Nuclear factor erythroid 2-related factor 2 (Homo sapiens, UniProt Q16236)	nM	1100
O=S(=O)(/C=C/c1ccncc1)c1cccc(Cl)c1	Nuclear factor erythroid 2-related factor 2 (Homo sapiens, UniProt Q16236)	nM	528
O=S(=O)(/C=C/c1ccc(Cl)cn1)c1ccc(Cl)cc1	Nuclear factor erythroid 2-related factor 2 (Homo sapiens, UniProt Q16236)	nM	3160
O=S(=O)(/C=C/c1cccnc1Cl)c1ccc(F)cc1	Nuclear factor erythroid 2-related factor 2 (Homo sapiens, UniProt Q16236)	nM	339
O=S(=O)(/C=C/c1ccncc1)c1ccccc1F	Nuclear factor erythroid 2-related factor 2 (Homo sapiens, UniProt Q16236)	nM	760

----------
assay protocol: Cytotoxicity against mouse BV-2 cells assessed cell viability at 0.1 uM measured after 6 hrs by Ez-cytox reagent based assay relative to control
test settings: read-out: Activity
quantity name: viability at 6 h, 0.1 µM (%)

smiles data	quantity name	u	data value
O=S(=O)(/C=C/c1ncccc1Cl)c1ccccc1Cl	viability at 6 h, 0.1 µM	%	100

----------
tested on: UniProt:P10635
Sequence (P10635 whole entry): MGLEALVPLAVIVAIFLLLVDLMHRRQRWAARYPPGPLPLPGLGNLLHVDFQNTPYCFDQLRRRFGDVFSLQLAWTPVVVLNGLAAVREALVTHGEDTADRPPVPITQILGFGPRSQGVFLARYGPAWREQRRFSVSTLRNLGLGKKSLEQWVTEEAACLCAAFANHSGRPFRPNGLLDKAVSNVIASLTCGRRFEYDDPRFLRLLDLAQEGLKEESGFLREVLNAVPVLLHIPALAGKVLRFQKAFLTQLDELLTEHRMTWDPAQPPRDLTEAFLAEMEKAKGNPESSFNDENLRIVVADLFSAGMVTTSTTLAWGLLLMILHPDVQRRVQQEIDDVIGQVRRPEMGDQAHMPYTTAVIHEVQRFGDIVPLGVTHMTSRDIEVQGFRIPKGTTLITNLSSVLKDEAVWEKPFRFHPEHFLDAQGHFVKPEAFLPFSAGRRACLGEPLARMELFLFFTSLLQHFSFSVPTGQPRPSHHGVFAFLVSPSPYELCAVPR
assay protocol: Inhibition of CYP2D6 (unknown origin) assessed as residual activity
Assay type: ADME

smiles data	tested on	activity
O=S(=O)(/C=C/c1ncccc1Cl)c1ccccc1Cl	UniProt:P10635	88%

----------
tested on: Nuclear factor erythroid 2-related factor 2 (Homo sapiens)
Sequence (Q16236 whole entry): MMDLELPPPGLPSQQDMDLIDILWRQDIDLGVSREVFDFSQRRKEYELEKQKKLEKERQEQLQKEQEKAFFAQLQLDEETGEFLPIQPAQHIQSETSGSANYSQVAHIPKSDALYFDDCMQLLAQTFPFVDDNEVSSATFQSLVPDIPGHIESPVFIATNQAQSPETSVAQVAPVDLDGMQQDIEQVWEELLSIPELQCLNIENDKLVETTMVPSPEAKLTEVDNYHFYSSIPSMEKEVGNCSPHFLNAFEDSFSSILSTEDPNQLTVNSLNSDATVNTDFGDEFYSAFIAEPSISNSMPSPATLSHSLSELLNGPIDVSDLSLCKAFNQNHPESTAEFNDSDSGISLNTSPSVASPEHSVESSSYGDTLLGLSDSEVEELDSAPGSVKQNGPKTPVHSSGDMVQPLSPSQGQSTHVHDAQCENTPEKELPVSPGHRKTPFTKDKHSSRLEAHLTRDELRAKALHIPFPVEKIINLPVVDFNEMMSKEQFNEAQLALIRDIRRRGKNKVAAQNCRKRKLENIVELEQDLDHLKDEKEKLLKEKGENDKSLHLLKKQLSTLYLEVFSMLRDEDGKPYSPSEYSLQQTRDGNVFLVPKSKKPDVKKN
assay protocol: Activation of Nrf2 (unknown origin) expressed in human U2OS cells co-expressing Keap1 assessed as increase in Nrf2 nuclear translocation incubated for 6 hrs under dark condition by pathhunter assay
pEC50: −log10 of the molar value.
Is pEC50 at least 6? Then Condition met. If not, Condition not met.

smiles data	class label
O=S(=O)(/C=C/c1ccccn1)c1ccc(Cl)cc1	Condition not met
O=S(=O)(/C=C/c1ncccc1F)c1ccccc1F	Condition met
O=S(=O)(/C=C/c1ncccc1Cl)c1cccc(Cl)c1	Condition met
O=S(=O)(/C=C/c1ncccc1F)c1ccc(Cl)cc1	Condition met
O=S(=O)(/C=C/c1ccc(Cl)nc1)c1ccc(Cl)cc1	Condition not met
O=S(=O)(/C=C/c1ccccn1)c1cccc(F)c1	Condition not met
O=S(=O)(/C=C/c1ncccc1F)c1ccc(F)cc1	Condition met
O=S(=O)(/C=C\c1ccc(Cl)nc1)c1cccc(Cl)c1	Condition not met
O=S(=O)(/C=C/c1ncccc1Cl)c1ccc(Cl)cc1	Condition met
O=S(=O)(/C=C\c1cccc(Cl)n1)c1ccccc1Cl	Condition met
O=S(=O)(/C=C/c1ccc(Cl)nc1)c1cccc(F)c1	Condition not met
O=S(=O)(/C=C\c1ncccc1F)c1ccccc1F	Condition met
O=S(=O)(/C=C/c1ncccc1Cl)c1ccc(F)cc1	Condition met
O=S(=O)(/C=C/c1ncccc1F)c1cccc(Cl)c1	Condition met
O=S(=O)(/C=C/c1ccccn1)c1ccccc1Cl	Condition met
O=S(=O)(/C=C/c1ccccn1)c1ccc(F)cc1	Condition not met
O=S(=O)(/C=C/c1ncccc1F)c1cccc(F)c1	Condition met
O=S(=O)(/C=C/c1cccnc1)c1cccc(Cl)c1	Condition not met
O=S(=O)(/C=C/c1cccnc1Cl)c1ccccc1Cl	Condition met
O=S(=O)(/C=C/c1cccc(Cl)n1)c1ccc(F)cc1	Condition not met
O=S(=O)(/C=C\c1ncccc1F)c1cccc(Cl)c1	Condition met
